Target: OsWOX13 (Oryza sativa, UniProt Q5QMM3 1-267)
Sequence: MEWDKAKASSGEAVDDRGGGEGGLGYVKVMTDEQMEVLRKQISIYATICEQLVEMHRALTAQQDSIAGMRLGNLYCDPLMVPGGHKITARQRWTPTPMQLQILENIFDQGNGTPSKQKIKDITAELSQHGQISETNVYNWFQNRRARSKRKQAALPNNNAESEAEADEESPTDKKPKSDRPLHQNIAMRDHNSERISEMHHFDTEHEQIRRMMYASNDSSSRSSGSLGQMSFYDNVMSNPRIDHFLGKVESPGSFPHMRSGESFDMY
Assay: protein-binding microarray (RPBM); PBS, 2% BSA, 51.3 ng/ul salmon testes DNA, 50 uM zinc acetate, 200 nM TF, 25 C, 1 h; high values mean tight binding
Conditions: protein: recombinant; tags: N-terminal polyhistidine and DsRed monomer fusion (pET32a); label: CyDye5-dUTP incorporated in the synthesized complementary strand; 3' TTTTT single-stranded linker to array surface; dsDNA, one strand shown
The full ranking holds about 35,000 sequences; the median of “fluorescence intensity (a.u.)” is about 10,000, and the highest 2% start at about 52,000. Many of the other results were omitted from the sample, so the highest values are more common in it than they were.

| sequence.code | binding signal |
| --- | --- |
| TTGTATAAATTGGCTATTAGATTGGCTATAGATTAATTGGCGGAGTCACCTAGTGCAG | 58900 fluorescence intensity (a.u.) |
| AATGATCTGATGGATGTTCTCTCACGTTCAAATCAGAGGCCGGAGTCACCTAGTGCAG | 8430 fluorescence intensity (a.u.) |
| CGGTTAGATTACATTGGTACCTCATGATATCTCGTACCTCCGGAGTCACCTAGTGCAG | 4680 fluorescence intensity (a.u.) |
| ATTTAGACAGGTTCCAACCTCCTTGATAACAGTTAAAACCCGGAGTCACCTAGTGCAG | 7950 fluorescence intensity (a.u.) |
| CAACGGTTAGATTAGATTGGTACTTCATGGTACATCGTGGCGGAGTCACCTAGTGCAG | 43200 fluorescence intensity (a.u.) |
| TACTATCAACTCTGTTAAAATTGAAGAATTTTGACTAAAACGGAGTCACCTAGTGCAG | 3310 fluorescence intensity (a.u.) |
| TTGTATAAATGAGCTATCAGATTGGCTATAGATAAATTGGCGGAGTCACCTAGTGCAG | 12000 fluorescence intensity (a.u.) |
| TTATTAGATTGACTATAGATAAATTAGATAAATTGGAGTTCGGAGTCACCTAGTGCAG | 53600 fluorescence intensity (a.u.) |
| TTATTTAATTTAGAAAATTGGAGTTACCAGTTGTTCAGTTCGGAGTCACCTAGTGCAG | 19500 fluorescence intensity (a.u.) |

----------
// values below are reported binding signal
Target: OsWOX13 (Oryza sativa, UniProt Q5QMM3 1-267)
Sequence: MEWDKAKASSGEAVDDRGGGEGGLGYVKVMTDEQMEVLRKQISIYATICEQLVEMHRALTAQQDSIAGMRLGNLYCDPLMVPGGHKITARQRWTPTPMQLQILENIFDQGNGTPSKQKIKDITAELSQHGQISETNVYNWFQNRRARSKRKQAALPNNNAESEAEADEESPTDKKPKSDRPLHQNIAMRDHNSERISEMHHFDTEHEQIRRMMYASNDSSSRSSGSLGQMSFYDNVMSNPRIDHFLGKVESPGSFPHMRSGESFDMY
Assay: protein-binding microarray (RPBM); PBS, 2% BSA, 51.3 ng/ul salmon testes DNA, 50 uM zinc acetate, 200 nM TF, 25 C, 1 h; high values mean tight binding
Conditions: protein: recombinant; tags: N-terminal polyhistidine and DsRed monomer fusion (pET32a); label: CyDye5-dUTP incorporated in the synthesized complementary strand; 3' TTTTT single-stranded linker to array surface; dsDNA, one strand shown
In all, about 35,000 sequences were measured (“fluorescence intensity (a.u.)”: median about 10,000, highest 2% from about 52,000 on). Only a selection was taken, and the highest values are over-represented in it overall.

| sequence.code | binding signal |
| --- | --- |
| AAAATTGAAAGTTTGATTGAAATTAGAACGATGTGACGAACGGAGTCACCTAGTGCAG | 35500 fluorescence intensity (a.u.) |
| TAGAAGTTTGATTGAAATTGAAACGATATGATGGAAAAGTCGGAGTCACCTAGTGCAG | 44500 fluorescence intensity (a.u.) |
| CAAAATTTGAAGTTTGATTGAAATTGGTACGATGTGATGGCGGAGTCACCTAGTGCAG | 62400 fluorescence intensity (a.u.) |
| ATAGTGATAGGTCTGTCAATGCAGTGAGGTCCTGAAAACCCGGAGTCACCTAGTGCAG | 8210 fluorescence intensity (a.u.) |
| TTATTAGATGATGATTATTTTGAGAAGGTTTCTTAGGATGCGGAGTCACCTAGTGCAG | 12900 fluorescence intensity (a.u.) |
| TCAAAATTAGAAGTTTGAAGAAATTGGAACGATGTGATGGCGGAGTCACCTAGTGCAG | 7940 fluorescence intensity (a.u.) |
| TTTGGTTGAAATTGAAACGATGTGATGGAAAAGTTGGAAGCGGAGTCACCTAGTGCAG | 5010 fluorescence intensity (a.u.) |
| TCTGATGAACACATTGAGAAAGCAGATGAAGTTGCAGTGTCGGAGTCACCTAGTGCAG | 5120 fluorescence intensity (a.u.) |
| CTGATTGAAATTGAAAGTTTGATTGAAATTGAAACGATGCCGGAGTCACCTAGTGCAG | 65300 fluorescence intensity (a.u.) |

----------
Biological target: OsWOX13 (Oryza sativa, UniProt Q5QMM3 1-267)
Sequence: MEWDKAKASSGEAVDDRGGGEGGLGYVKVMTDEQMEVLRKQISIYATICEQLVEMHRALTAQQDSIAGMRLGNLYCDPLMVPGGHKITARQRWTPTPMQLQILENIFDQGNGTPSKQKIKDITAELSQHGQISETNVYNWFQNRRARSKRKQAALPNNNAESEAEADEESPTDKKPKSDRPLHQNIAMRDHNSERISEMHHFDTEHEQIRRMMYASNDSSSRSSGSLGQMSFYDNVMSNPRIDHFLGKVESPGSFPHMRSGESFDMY
Assay: protein-binding microarray (RPBM); PBS, 2% BSA, 51.3 ng/ul salmon testes DNA, 50 uM zinc acetate, 200 nM TF, 25 C, 1 h; high values mean tight binding
Settings: protein: recombinant; tags: N-terminal polyhistidine and DsRed monomer fusion (pET32a); label: CyDye5-dUTP incorporated in the synthesized complementary strand; 3' TTTTT single-stranded linker to array surface; dsDNA, one strand shown
In all, about 35,000 sequences were measured (“fluorescence intensity (a.u.)”: median about 10,000, highest 2% from about 52,000 on). The entries come from a sample that favours the highest values as a whole.
// values below are reported binding signal
observable: binding signal

| sequence.code | result |
| --- | --- |
| TCTGGGTGATTTGTTGCAAAAGAATATTTTAATTCACTGCCGGAGTCACCTAGTGCAG | 14000 fluorescence intensity (a.u.) |
| GGCCGATTGATTGGGTCCGAGTAATCTCGGAAATGTGGGGCGGAGTCACCTAGTGCAG | 53600 fluorescence intensity (a.u.) |
| ATTAATTAGCTGCCCGCAGACAAGACCCGTGACTTTGGCCCGGAGTCACCTAGTGCAG | 23800 fluorescence intensity (a.u.) |
| ATGATTGCCGTATGATATGTGATACGAAAGAGTTGGGGATCGGAGTCACCTAGTGCAG | 32700 fluorescence intensity (a.u.) |
| GATTGATTTGATTGATTGCTTGATTGGTTAATTGGTTGATCGGAGTCACCTAGTGCAG | 51600 fluorescence intensity (a.u.) |
| ATCTAGAATTAGATGTGACATATCGTAGTACTATGAACCTCGGAGTCACCTAGTGCAG | 4830 fluorescence intensity (a.u.) |
| TAAAACTATTTAATTACCAAACTATTCACGTGATGAGATGCGGAGTCACCTAGTGCAG | 14900 fluorescence intensity (a.u.) |
| GAAATGGGCCTAATTGTCGGTCACATACCGAGTAAATGGGCGGAGTCACCTAGTGCAG | 4300 fluorescence intensity (a.u.) |
| GTGATTGATATCGATTCTGATTGATGCCTTTGCCTGGTACCGGAGTCACCTAGTGCAG | 57000 fluorescence intensity (a.u.) |
| GATAAGTAAATTAATTGGAAGAAAGAAATCAGTGGGGAGGCGGAGTCACCTAGTGCAG | 13500 fluorescence intensity (a.u.) |
| ACGGGGTTGCGGTAATTTTAATTGGGCCGAAATGTGATTCCGGAGTCACCTAGTGCAG | 4130 fluorescence intensity (a.u.) |
| CTCTGTAACTATATAATTTCGTGCCAGATCGAAACTATGTCGGAGTCACCTAGTGCAG | 4040 fluorescence intensity (a.u.) |
| CCTGGCTGATCGATAATTAATCCGTCCTCGCCGTCGCCATCGGAGTCACCTAGTGCAG | 15400 fluorescence intensity (a.u.) |
| TTTATACGAAAATCAATAATTATAGCAGATATCCACAAGGCGGAGTCACCTAGTGCAG | 5700 fluorescence intensity (a.u.) |
| AATTAACGGAGGAAACTCCAATCAGATACGCAGACGGACACGGAGTCACCTAGTGCAG | 8430 fluorescence intensity (a.u.) |
| TTCAATTTGATTTTGATTTTAGGTGAATCTATAGATATCACGGAGTCACCTAGTGCAG | 9990 fluorescence intensity (a.u.) |
| ACCTTCACTTGATTGCTGGTGGTAGTAGTAGTAGTAGTACCGGAGTCACCTAGTGCAG | 21700 fluorescence intensity (a.u.) |
| TGATTGTACGTATTCTGATTGATTGCTTATCGATATCTCACGGAGTCACCTAGTGCAG | 26100 fluorescence intensity (a.u.) |
| TCTGGTCGTAAATTGACAACCAACCTTAAGAAAATCCAGGCGGAGTCACCTAGTGCAG | 21300 fluorescence intensity (a.u.) |
